assayed-system: T1, VEGFR-2-Fc (UniProt P35968 20-322)
T1 construct: domain: first 3 Ig domains; conditioned supernatant of 293T cells; also called VEGFR-2-Fc fusion protein; not shown: Fc fragment of the pIg vector
T1 sequence (P35968 20-322): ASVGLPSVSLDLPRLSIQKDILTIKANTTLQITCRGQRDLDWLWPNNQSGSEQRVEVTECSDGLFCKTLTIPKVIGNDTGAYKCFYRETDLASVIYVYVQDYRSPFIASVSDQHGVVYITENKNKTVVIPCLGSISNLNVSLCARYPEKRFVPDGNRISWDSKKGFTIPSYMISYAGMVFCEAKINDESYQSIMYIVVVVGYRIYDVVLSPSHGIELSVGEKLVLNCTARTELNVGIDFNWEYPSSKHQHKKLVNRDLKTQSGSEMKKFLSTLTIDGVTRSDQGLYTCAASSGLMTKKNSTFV
assay-info: receptor-Fc IP
Text: The binding assay procedure was identical to the immunoprecipitation using pentahistidine antibody described in Example 2, apart from the composition of the immunoprecipitation (IP) mixes. […]
readout-type: binding result

Before answering, review these 5 worked examples.
[
  {
    "binder": "73-14 (ligand) GQNHHEVVKSIDNEWRKTQCMPREVCIDVGKEYPDEIEYIFKPPCVSVYRCGGCCNDEGLECMNTSTSYLSKTLFEITVPLSQGPKPVTISFANHTSCRCMSKLD",
    "measured-result": "no binding"
  },
  {
    "binder": "33-16 (ligand) GQNHHEVVKSIDNEWRKTQCMPIETLVDIFQEYPDEIEYIFKPPCVSVYRCGGCCNSEGLQCMNTSTSYLSKTLFEITVPLSQGPKPVTISFANHTSCRCMSKLD",
    "measured-result": "no binding"
  },
  {
    "binder": "62-10 (ligand) GQNHHEVVKFMDVYQRSYCHPREVCIDVGKEFGVATNTFFKPPCVSVYRCGGCCNDEGLECMNTSTSYLSKTLFEITVPLSQGPKPVTISFLQHNKCECRPKKD",
    "measured-result": "binds"
  },
  {
    "binder": "22-11 (ligand) AHYNTEILKSIDNEWRKTQCMPREVCIDVGKEFGVATNTFFKPPCVSVYRCGGCCNSEGLQCVPTEESNITMQIMRITVPLSQGPKPVTISFLQHNKCECRPKKD",
    "measured-result": "no binding"
  },
  {
    "binder": "12-1 (ligand) GQNHHEVVKFMDVYQRSYCHPIETLVDIFQEFGVATNTFFKPPCVSVYRCGGCCNDEGLECVPTEESNITMQIMRIKPHQGQHIGEMSFLQHNKCECRPKKDLVF",
    "measured-result": "binds"
  }
]

Field request: binding result | item: 32-6 (ligand) GQNHHEVVKSIDNEWRKTQCMPIETLVDIFQEFGVATNTFFKPPCVSVYRCGGCCNDEGLECMNTSTSYLSKTLFEIKPHQGQHIGEMSFANHTSCRCMSKLD
no binding

Reported binding result, binder 64-7 (ligand) GQNHHEVVKFMDVYQRSYCHPREVCIDVGKEFGVATNTFFKPSCVPLMRCGGCCNSEGLQCVPTEESNITMQIMRIKPHQGQHIGEMSFANHTSCRCMSKLD : ____
no binding

So what does the record say about binding result for 73-3 (ligand) GQNHHEVVKSIDNEWRKTQCMPREVCIDVGKEYPDEIEYIFKPPCVSVYRCGGCCNSEGLQCVPTEESNITMQIMRIKPHQGQHIGEMSFLQHNKCECRPKKD ?
no binding

The reported numbers originate from patent US20080058263A1.
